SUBJECT_OF_TEST: T1, Sortilin hSORTECDBAP (human, UniProt Q99523 78-755)
T1 sequence: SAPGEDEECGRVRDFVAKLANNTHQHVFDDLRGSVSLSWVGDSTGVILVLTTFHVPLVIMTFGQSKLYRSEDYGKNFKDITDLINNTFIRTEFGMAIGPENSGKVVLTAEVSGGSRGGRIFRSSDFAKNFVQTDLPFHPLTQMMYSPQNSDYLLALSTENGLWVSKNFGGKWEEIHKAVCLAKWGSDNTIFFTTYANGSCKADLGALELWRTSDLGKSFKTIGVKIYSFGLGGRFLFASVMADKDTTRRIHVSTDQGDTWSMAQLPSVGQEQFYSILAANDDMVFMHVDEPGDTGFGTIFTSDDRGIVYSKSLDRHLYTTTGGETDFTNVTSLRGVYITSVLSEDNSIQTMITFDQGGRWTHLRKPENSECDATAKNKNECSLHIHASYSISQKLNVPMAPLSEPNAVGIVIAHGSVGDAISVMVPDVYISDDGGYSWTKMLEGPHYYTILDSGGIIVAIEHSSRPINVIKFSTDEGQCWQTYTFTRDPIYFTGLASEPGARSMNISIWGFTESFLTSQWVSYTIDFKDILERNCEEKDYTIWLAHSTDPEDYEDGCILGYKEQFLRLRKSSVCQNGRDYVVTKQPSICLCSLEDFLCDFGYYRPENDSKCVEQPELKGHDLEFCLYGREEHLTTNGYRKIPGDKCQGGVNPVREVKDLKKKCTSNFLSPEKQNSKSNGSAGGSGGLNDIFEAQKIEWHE
EXPERIMENTAL_PROTOCOL: BLI (Octet384RED)
READOUT_TYPE: EC50 (ng/mL)
Answers are plain numbers, in ng/mL.

Query: Given Antibody 6003-900 (antibody, human IgG1, V domains shown, also called antibody 900; Sortilin human antibody 900) VH: EVQLVESGGGLVKPGGSLRLSCAASGFTFSSYSMNWVRQAPGKGLEWVSSISSSSSYIYYADSVKGRFTISRDNAKNSLYLQMNSLRAEDTAVYYCARRGSGSYDAFDIWGQGTMVTVSS VL: EIVLTQSPDFQSVTPKEKVTITCRASQSIGYSLHWYQQKPDQSPKLLIKYASQSFSGVPSRFSGSGSGTDFTLTINSLEAEDAAAYYCHQSSSLPLTFGGGTKVEIK , state its recorded EC50.
Result: 1.06
